% Reactivity (cross reactivity) overview
# Tested on: monoclonal antibodies of the present invention (anti-11 dhTxB2 / 11 dh2,3dTxB2 mAb)
# procedure-text: Monoclonal antibody specificity: percent cross-reactivity (enzyme-based competition assay)
# Format: binding, mouse
# assay-setup: relative to 11 dh TxB2 = 100%
readout: % Reactivity (cross reactivity) (%)

CCCCC[C@H](O)/C=C/[C@H]1C(=O)C[C@H](O)[C@@H]1C/C=C\CCCC(=O)O	0.2
CCCCC[C@H](O)/C=C/[C@H]1OC(O)C[C@H](O)[C@@H]1C/C=C\CC(=O)O (stereo partly drawn)	1.93
CCCCCC(O)C=CC1OC(=O)CC(O)C1CC=CCCCC(=O)O (stereo not drawn) [11 dh TxB2, 11-dehydro Thromboxane B2]	100
CCCCCC(O)C=CC1OC(=O)CC(O)C1CC=CCC(=O)O (stereo not drawn) [11-dehydro-2,3 dinor thromboxane B2]	166
CCCCC[C@H](O)/C=C/[C@H]1OC(O)C[C@H](O)[C@@H]1C/C=C\CCCC(=O)O (stereo partly drawn)	0.05

* * *

# Tested on: monoclonal antibodies of the present invention (anti-11 dhTxB2 / 11 dh2,3dTxB2 mAb)
# procedure-text: Monoclonal antibody specificity: percent cross-reactivity (enzyme-based competition assay)
# Assay type: binding, mouse
# assay-setup: relative to 11 dh TxB2 = 100%
% Reactivity (cross reactivity) overview
readout: % Reactivity (cross reactivity)

CCCCC[C@H](O)/C=C/[C@H]1[C@H](O)CC(=O)[C@@H]1C/C=C\CCCC(=O)O [PGE2]	<0.01%
O=C(O)CCCCC(=O)CCC1C(O)CC(O)C1CCC(=O)O (stereo not shown)	<0.01%
CCCCC[C@H](O)/C=C/[C@@H]1[C@@H](CC(=O)CCCCC(=O)O)[C@@H](O)C[C@H]1O [6-keto PGF1a]	<0.01%
O=C(O)CCCCC(=O)CCC1C(O)CC(=O)C1CCC(=O)O (stereo not shown)	<0.01%

These entries and their values trace back to patent US8168400B2.
